Each item that follows carries a reported pIC50.
- Assay target: UniProtKB Q15858
- Sequence (Q15858 whole entry): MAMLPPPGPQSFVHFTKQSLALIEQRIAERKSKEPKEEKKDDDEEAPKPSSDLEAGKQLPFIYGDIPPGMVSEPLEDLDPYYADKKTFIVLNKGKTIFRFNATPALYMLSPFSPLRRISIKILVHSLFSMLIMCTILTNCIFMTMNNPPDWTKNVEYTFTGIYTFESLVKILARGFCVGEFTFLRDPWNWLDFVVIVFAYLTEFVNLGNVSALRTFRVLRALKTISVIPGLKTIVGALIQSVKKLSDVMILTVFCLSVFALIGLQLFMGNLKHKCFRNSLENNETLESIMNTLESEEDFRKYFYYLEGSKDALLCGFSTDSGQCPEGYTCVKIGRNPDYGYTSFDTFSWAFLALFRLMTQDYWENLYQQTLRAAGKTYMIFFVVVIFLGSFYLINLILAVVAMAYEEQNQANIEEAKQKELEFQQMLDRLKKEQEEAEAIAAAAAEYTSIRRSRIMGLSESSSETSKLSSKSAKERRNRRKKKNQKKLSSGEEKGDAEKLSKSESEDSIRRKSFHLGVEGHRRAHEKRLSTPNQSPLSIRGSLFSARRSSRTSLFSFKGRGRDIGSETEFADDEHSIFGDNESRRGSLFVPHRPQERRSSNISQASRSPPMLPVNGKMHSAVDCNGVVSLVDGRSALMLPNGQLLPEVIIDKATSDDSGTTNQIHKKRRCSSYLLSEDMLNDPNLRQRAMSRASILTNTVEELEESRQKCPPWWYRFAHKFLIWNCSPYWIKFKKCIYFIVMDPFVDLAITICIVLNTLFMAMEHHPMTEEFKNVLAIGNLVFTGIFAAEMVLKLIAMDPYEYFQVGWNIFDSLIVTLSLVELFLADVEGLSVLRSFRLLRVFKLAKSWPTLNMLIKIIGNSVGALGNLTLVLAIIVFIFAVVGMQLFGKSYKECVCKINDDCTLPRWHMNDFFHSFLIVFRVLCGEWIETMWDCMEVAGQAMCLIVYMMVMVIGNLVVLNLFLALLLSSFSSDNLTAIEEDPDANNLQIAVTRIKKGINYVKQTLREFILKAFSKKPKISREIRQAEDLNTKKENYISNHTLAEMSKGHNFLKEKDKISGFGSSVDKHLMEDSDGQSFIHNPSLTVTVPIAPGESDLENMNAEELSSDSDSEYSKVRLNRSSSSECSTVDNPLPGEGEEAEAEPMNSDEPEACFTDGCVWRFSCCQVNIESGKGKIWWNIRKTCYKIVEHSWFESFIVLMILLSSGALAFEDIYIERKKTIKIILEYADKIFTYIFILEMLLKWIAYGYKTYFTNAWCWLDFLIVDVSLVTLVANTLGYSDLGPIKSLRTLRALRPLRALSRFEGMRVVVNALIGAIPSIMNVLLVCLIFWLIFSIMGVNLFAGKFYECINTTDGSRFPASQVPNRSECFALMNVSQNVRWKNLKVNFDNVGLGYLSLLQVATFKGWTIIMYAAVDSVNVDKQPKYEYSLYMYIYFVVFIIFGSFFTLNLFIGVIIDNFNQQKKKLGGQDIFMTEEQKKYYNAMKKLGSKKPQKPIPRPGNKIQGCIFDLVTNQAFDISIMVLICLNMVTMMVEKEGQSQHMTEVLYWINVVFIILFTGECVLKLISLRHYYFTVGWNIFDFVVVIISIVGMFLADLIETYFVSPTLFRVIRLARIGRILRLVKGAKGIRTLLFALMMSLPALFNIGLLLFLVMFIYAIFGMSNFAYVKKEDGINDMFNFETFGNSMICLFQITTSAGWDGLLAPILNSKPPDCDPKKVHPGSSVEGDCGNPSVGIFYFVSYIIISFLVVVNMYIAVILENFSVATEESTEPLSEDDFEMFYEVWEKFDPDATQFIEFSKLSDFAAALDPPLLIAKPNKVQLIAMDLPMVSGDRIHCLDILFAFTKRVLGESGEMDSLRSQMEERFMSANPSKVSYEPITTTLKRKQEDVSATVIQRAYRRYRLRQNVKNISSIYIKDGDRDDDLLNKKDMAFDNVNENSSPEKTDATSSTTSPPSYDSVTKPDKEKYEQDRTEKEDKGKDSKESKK
- Sequence (Q07699 19-218 partner): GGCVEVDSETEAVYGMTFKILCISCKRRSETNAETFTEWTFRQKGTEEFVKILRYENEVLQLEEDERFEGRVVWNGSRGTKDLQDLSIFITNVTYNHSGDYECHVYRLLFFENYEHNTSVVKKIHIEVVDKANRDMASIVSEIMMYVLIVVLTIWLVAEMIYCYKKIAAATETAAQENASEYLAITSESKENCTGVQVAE
- Assay: Human Nav1.7 inhibitory activity evaluation (automated patch clamp QPatch16X, HEK293A cells stably expressing human Nav1.7 and human Navβ1)
- Format: cell-based
- Condition notes: HEK293A cells stably expressing human Nav1.7 and human Navβ1, automated patch clamp QPatch16X
pIC50: −log10 of the molar value.

Please review the following examples before continuing.
{"Molecule": "O=C(N[C@H]1COc2ccc(COCC(F)(F)F)cc2C1)c1cc2n(n1)CCC(COCC(F)(F)F)O2 (single isomer, unassigned) [129 (isomer B)]", "Assay target": "UniProtKB Q15858", "Result": "> 6.00"}
{"Molecule": "N#Cc1ccc2c(c1)C[C@@H](NC(=O)c1cc3n(n1)CCC(COCc1cccc(F)c1)O3)CO2 (stereo partly drawn) [Example 104]", "Assay target": "UniProtKB Q15858", "Result": "> 6.00"}
{"Molecule": "COc1cccc(-c2c(C(=O)N[C@H]3COc4ccccc4C3)nc3n2CC(C(F)(F)F)CC3)n1 (stereo partly drawn) [Example 15]", "Assay target": "UniProtKB Q15858", "Result": "> 6.00"}
{"Molecule": "O=C(N[C@H]1COc2ccc(-c3ccccn3)cc2C1)c1cc2n(n1)CCC(COCC1CC1)O2 (stereo partly drawn) [Example 110]", "Assay target": "UniProtKB Q15858", "Result": "> 6.00"}
{"Molecule": "O=C(N[C@H]1COc2ccc(C(F)F)cc2C1)c1cn2c(n1)CCC(C(F)(F)F)C2 (stereo partly drawn) [Example 6]", "Assay target": "UniProtKB Q15858", "Result": "> 5.00"}
{"Molecule": "O=C(N[C@H]1COc2ccccc2C1)c1cn2c(n1)CNC(c1ccccc1)C2 (stereo partly drawn) [Example 56]", "Assay target": "UniProtKB Q15858", "Result": "> 5.00"}
{"Molecule": "O=C(N[C@H]1COc2ccccc2C1)c1cn2c(n1)CNC(CCCc1ccccc1)C2 (stereo partly drawn) [Example 55]", "Assay target": "UniProtKB Q15858", "Result": "> 6.00"}
{"Molecule": "N#Cc1ccc2c(c1)C[C@@H](NC(=O)c1cc3n(n1)CCC(COC(F)(F)F)O3)CO2 (single isomer, unassigned) [134 (isomer B)]", "Assay target": "UniProtKB Q15858", "Result": "> 5.00"}
{"Molecule": "COc1ccc2c(c1)CC(NC(=O)c1cn3c(n1)CCC(C(F)(F)F)C3)CO2 (stereo not drawn) [Example 13]", "Assay target": "UniProtKB Q15858", "Result": "> 5.00"}
{"Molecule": "CCc1ccc2c(c1)C[C@@H](NC(=O)c1cn3c(n1)CCC(C(F)(F)F)C3)CO2 (stereo partly drawn) [Example 11]", "Assay target": "UniProtKB Q15858", "Result": "> 6.00"}

Q. Need pIC50 of O=C(N[C@H]1COc2ccc(COCC(F)(F)F)cc2C1)c1cc2n(n1)CCC(COC(F)F)O2 (stereo partly drawn) [Example 139] , thanks.
A. > 6.00

Q. Need pIC50 of N#Cc1ccc2c(c1)C[C@@H](NC(=O)c1cc3n(n1)CCC(COC(C(F)(F)F)C(F)(F)F)O3)CO2 (stereo partly drawn) [Example 116] , thanks.
A. > 6.00

Q. Need pIC50 of N#Cc1ccc2c(c1)C[C@@H](NC(=O)c1cc3n(n1)CCC(COCC(F)(F)F)O3)CO2 (single isomer, unassigned) [115 (isomer A)] , thanks.
A. > 5.00

Q. Need pIC50 of COc1cc(C2CCn3nc(C(=O)N[C@H]4COc5ccc(C#N)cc5C4)cc3O2)ccn1 (single isomer, unassigned) [74 (isomer A)] , thanks.
A. > 6.00

Q. Need pIC50 of CN1Cc2nc(C(=O)N[C@H]3COc4ccccc4C3)cn2CC1CCC1CCCC1 (stereo partly drawn) [Example 52] , thanks.
A. > 6.00

Q. Need pIC50 of O=C(N[C@H]1COc2ccc(COC3CCOCC3)cc2C1)c1cc2n(n1)CCC(c1ccccc1F)O2 (stereo partly drawn) [Example 84] , thanks.
A. > 5.00

Q. Need pIC50 of CCOCC1CCn2nc(C(=O)N[C@H]3COc4ccc(-c5ccccn5)cc4C3)cc2O1 (stereo partly drawn) [Example 123] , thanks.
A. > 5.00

Q. Need pIC50 of N#Cc1ccc(-c2ccc3c(c2)C[C@@H](NC(=O)c2cc4n(n2)CCC(COCC(F)(F)F)O4)CO3)cn1 (stereo partly drawn) [Example 132] , thanks.
A. > 5.00

Q. Need pIC50 of O=C(c1cn2c(n1)CCC(C1CCCCC1)C2)N1CCC1Cc1ccccc1 (stereo not drawn) [Example 31] , thanks.
A. > 6.00

Q. Need pIC50 of CN(Cc1ccccc1)CC1CCn2nc(C(=O)N[C@H]3COc4ccc(Cl)cc4C3)cc2O1 (stereo partly drawn) [Example 121] , thanks.
A. > 5.00
